# measurementTarget: human recombinant Yes [a.a. 2–543 (end)] (Homo sapiens, UniProt P07947)
# Construct: human recombinant Yes [a.a; 2–543 (end)]; purchased BPS Bioscience 40488
# Sequence (P07947 2-543): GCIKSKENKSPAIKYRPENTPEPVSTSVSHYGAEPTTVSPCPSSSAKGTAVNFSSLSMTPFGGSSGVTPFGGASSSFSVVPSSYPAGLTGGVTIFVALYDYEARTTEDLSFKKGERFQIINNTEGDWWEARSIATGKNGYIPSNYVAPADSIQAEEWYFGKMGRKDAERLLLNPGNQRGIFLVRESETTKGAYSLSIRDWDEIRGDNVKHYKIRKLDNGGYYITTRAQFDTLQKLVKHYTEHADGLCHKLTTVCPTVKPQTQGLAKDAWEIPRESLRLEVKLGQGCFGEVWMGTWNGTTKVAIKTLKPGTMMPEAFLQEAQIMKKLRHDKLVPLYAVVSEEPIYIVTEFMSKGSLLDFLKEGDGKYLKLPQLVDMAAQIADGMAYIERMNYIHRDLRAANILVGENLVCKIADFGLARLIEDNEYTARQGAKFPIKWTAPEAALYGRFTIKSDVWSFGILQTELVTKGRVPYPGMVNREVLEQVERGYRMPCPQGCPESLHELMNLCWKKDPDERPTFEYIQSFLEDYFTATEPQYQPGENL
# methodSummary: ADP-Glo kinase assay, inhibition rates of Yes phosphorylation activity (first and second screening)
# Type: biochemical
# setupConditions: first screening; mean of n = 4 wells; 10 μmol L−1 compound
Threshold check on First screening IR (inhibition rate): at or above 10% gives Condition met, strictly below gives Condition not met.

> print(dat)
                                   compound              class
1  O=C(Nc1ccccc1OC(F)F)c1ccc2c(c1)C(=O)N(Cc1ccncc1)C2=O [Compound Z27081729]      Condition met
2  CC(=O)NCCNC(=O)c1cc(-c2ccccc2)nc2c1cnn2Cc1ccccc1Cl [Compound Z228081748]      Condition met
3  COc1cccc(/C=C2\CCCc3c2nc2ccccc2c3C(=O)O)c1 [Compound Z46035772]      Condition met
4  O=C(NCc1ccccn1)c1cc(-c2cccnc2)nc2c1cnn2Cc1ccco1 [Compound Z242175442]      Condition met
5  CC1CCCC(C)C12NC(=O)N(CN(C)CC(=O)Nc1ccccc1Cl)C2=O (centres unmarked) [Compound Z286135428]  Condition not met
6  CON(C)C(=O)c1cc(-c2ccccc2)nc2c1cnn2Cc1ccncc1 [Compound Z109300154]  Condition not met
7  CC1c2cc(Cl)cc(Cl)c2CCN1C(=O)c1cnc2n1CCCC2 (centres unmarked) [Compound Z1494913871]      Condition met
8  CC(C)Cn1c(=O)[nH]c(=O)c2c(C(=O)NCc3ccc(CN4CCOCC4)cc3)cc(C3CC3)nc21 [Compound Z338592020]  Condition not met

----------
Recorded measurements of First screening IR (inhibition rate), one per entry
# measurementTarget: human recombinant Yes [a.a. 2–543 (end)] (Homo sapiens)
# Construct: human recombinant Yes [a.a; 2–543 (end)]; purchased BPS Bioscience 40488
# methodSummary: ADP-Glo kinase assay, inhibition rates of Yes phosphorylation activity (first and second screening)
# Type: biochemical
# setupConditions: first screening; mean of n = 4 wells; 10 μmol L−1 compound
reportedMetric: First screening IR (inhibition rate) (%)

> print(dat)
                                    compound  quantitativeresult
 1  CN(C)S(=O)(=O)c1ccc(Cl)c(S(=O)(=O)N(C)C)c1                   7
 2     COc1ccc2c(c1)CC/C(=C\c1cccc(C)c1)C2=O                  -6
 3  O=C1CCCCCN1CCCNC(=O)N1CCN(S(=O)(=O)c2c(Cl)cccc2Cl)CC1                  -3
 4                  NNc1ncnc2c1cnn2Cc1ccccc1                 -12
 5   NC(=O)CCN(C(=O)CSc1ncc2ccccn12)c1ccccc1                  55
 6  Cc1cc(-c2ccccc2)nc(SC(C)C(=O)Nc2sc3c(c2C(N)=O)CCC3)n1 (stereo not shown)                  -3
 7   Cc1ccccc1CN(C)S(=O)(=O)C1CCS(=O)(=O)CC1                  -2
 8   CCn1ncc2c(C(=O)NC(C)C)cc(-c3ccccc3)nc21                   6
 9  CC(Oc1cccc(Cl)c1Cl)C(=O)Nc1ccc2nc[nH]c(=O)c2c1 (stereo not shown)                  -9
10                CS(=O)(=O)NS(=O)(=O)CCCCCl                 -15
11  CCC1CCCCN1S(=O)(=O)c1ccc(S(C)(=O)=O)cc1 (stereo not shown)                  51
12  Cn1c(CSc2n[nH]c(-c3ccccc3F)n2)nc2ccccc21                   4
13  CCCN(S(=O)(=O)c1ccc(Cl)cc1)S(=O)(=O)c1ccc(C)cc1C                   5
14     N#Cc1ccc(Cl)cc1NC(=O)CSc1ncnc2ccccc12                  18
15  CC(NC(c1ccccc1)c1ccccn1)c1ccncc1 (stereo not shown)                   3
16  CCCCCCCCN1C(=O)/C(=C/c2c(NCCCN3CCOCC3)nc3c(C)cccn3c2=O)SC1=S                   0
17  CCSc1cncc(N2CCC(C(=O)NC(C)C(C)C)CC2)n1 (stereo not shown)                   4
18  Cl.N#Cc1ccc(-c2cc(-c3ccccc3Cl)c3cc(Cl)ccc3n2)cc1                   1
19  CC(C)n1ncc2c(C(=O)Nc3ccccc3)cc(-c3ccccc3)nc21                 -10
20    FC(F)(F)c1ccnc(Nc2ccc(NC3CCOCC3)cc2)n1                  13
21  Cc1ccccc1Nc1nc(N)nc(CSc2nnc(NCc3ccccc3)s2)n1                   1
22  Brc1ccc(-c2cc(-c3ccccc3)c3ccccc3n2)cc1.Cl                   5
23  Cc1ccc(C)c(-n2c(=O)/c(=C/c3ccc(OC(F)F)cc3)s/c2=C(/C#N)C(=O)NCCN2CCOCC2)c1                  15
24     CCn1ncc2c(C(=O)N(C)C)cc(-c3cccs3)nc21                  -9
25      N#Cc1ccsc1NC(=O)CCCSc1nc2ccccc2[nH]1                  16
26  CC(Oc1ccc(N(C)C(N)=O)cc1)c1nnc(-c2cccc(Cl)c2)o1 (stereo not shown)                 -16
27  CCOC(=O)c1sc(-c2cccc([N+](=O)[O-])c2)cc1NC(=O)CCc1ccccc1                  -1
28  CC1CN(c2ncnc3c2cnn3CCC#N)CCO1 (stereo not shown)                   4
29  C=CCN1C(=O)c2ccc(C(=O)Nc3cc(C)cc(C)c3)cc2C1=O                  20
30    c1ccc(-c2cn(Cc3nc(-c4cccs4)no3)nn2)cc1                  13
31  CCCCN(C1CCS(=O)(=O)C1)S(=O)(=O)c1ccc(Cl)c(Cl)c1 (stereo not shown)                  30
32  O=C(Nc1cc(-c2cccc(F)c2F)[nH]n1)c1ccc2nncn2c1                  11
33  Cc1sc2nc(CSc3ccccc3)nc(N3CCCC3C(N)=O)c2c1C (stereo not shown)                   9
34  CC(NC(=O)c1ccc(-n2cnc3ccccc32)cc1)c1ccc(S(N)(=O)=O)cc1 (stereo not shown)                  -5

Data origin: paper PMC5607274
